B1: glmS ribozyme (parent)
chain: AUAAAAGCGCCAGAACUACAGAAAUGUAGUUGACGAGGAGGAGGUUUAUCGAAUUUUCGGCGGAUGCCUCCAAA

Variants of: B1
Experiment: kcat; higher = faster cleavage; RNA array
Details: with glucosamine-6-phosphate
Fewer inactive variants are shown than the library holds.
Where kcat equals or exceeds 0.0001 s⁻¹, the correct label is True; where it does not, the label is False.

Example entries begin here.
In [3]: df
Out[3]:
                                   sequence    cat
0  AUAAAAGCGCCAGAACUACAGAAAUGUAGUUGACGAGGUGGAGGUUUAUCGAAUUUUCGGCGGAUGUCUCCAAA   True
1  AUAAACGCGCCAGAACUACAGAAAUGUAGUUGACGAGGAGGAGGUUUAUCGAAUUUUCGGCGGAUGCCACCAAA  False

Is kcat for AUAAAAGCGCCAGAACUACAGAAAUGUAGUUGACGAGGAGGAGGUUUGUCGAAUUUUCGGCGGAUGCCUGCAAA at or above 0.0001 s⁻¹?
False

Please check the record AUAAAAGCGCCAGAACUACAGAAAUGUAGUUGACGGGGAGGAGGUUUAUCGAAGUUUCGGCGGAUGCCUCCAAA and state if its kcat is at or above 0.0001 s⁻¹.
False

Is kcat for AUAAAAGCGCCAGAACUACAGAAAUGUAGUUGACGAGGAGGAGGGUUAUCGAAUGUUCGGCGGAUGCCUCCAAA at or above 0.0001 s⁻¹?
True

Determine whether measured kcat meets or exceeds 0.0001 s⁻¹ for AUAAAAGCGCCAGAACUACAGAAAUGUAGUUGACGAGGACGAGGAUUAUCGAAUUUUCGGCGGAUGCCUCCAAA
True

State whether the measured kcat reaches 0.0001 s⁻¹, counting equality as reaching it, for AUAAAAGCGCCAGAACUACAGAAAUGUAGUUGAGGAGAAGGAGGUUUAUCGAAUUUUAGGCGGAUGCGUCCAAA
False

Textbook exercise: given the entry AUAAAAGCGCCAGAACUACAGAAAUGUAGUUGACGAGGAGGAGGCUUAUCGAAUUUUCGGCGGAUGCCUCUAAA , state whether its kcat is greater than or equal to 0.0001 s⁻¹.
True

Does the reported kcat for AUAAAAGCGCCAGAACUACAGAAAUGUAGUUGACGAGGAGGAGAUUUAUCGAAUUUUCGGCGGAUUCCUCCAAA fall at or above the 0.0001 s⁻¹ mark?
False

Answer whether kcat of AUAAAAGCGCCAGAACUACAGAAAUGUAGUUGACGAGGAGGAGGUUUAUCGAACUUACGGCGGAUGCCUCCAAA is greater than or equal to 0.0001 s⁻¹.
True

Say whether AUAAAAGCGCCAGAACUACAGAAAUGUAGGUGACGAGGAGGAGGUUUAUCGAAUUUUCGGCGGAUGACUCCAAA shows kcat of 0.0001 s⁻¹ or more.
True

API: above_or_equal(metric=kcat, cutoff=0.0001 s⁻¹) for item AUAAAAGCGCCAGAACUACAGAAAUGUAGUUGACGAGGAAGAGGUUUAUCGAAUUGUCGGCGGAUGCCUCCAAA
True

# bool: kcat of AUAAAAGCGCCAGAACUACAGAAAUGUACUUGACGAGGAGGAGGUUAAUCGAAUUUUCGGCGGAUGCCUCCAAA >= 0.0001 s⁻¹
True

FYI, the data here is from the supplement of paper PMC7125110.
